Listing of entries alongside the reported MIC (μg/mL) S. marcescens.
System: Serratia marcescens
Assay: MIC against Gram-negative bacteria: Serratia marcescens
Type: cell-based
Settings: S. marcescens; 10 h cultivation at 37° C.; 5×10^5 CFU/mL
Supply the numeric figure in µg/mL, leaving out any unit text.

input: Determine from records and report MIC (μg/mL) S. marcescens for PRT158 (PGESHANDLECSGKGKCTTKPSEATFSCTCEEQYVGTFCE; listed as Homo sapiens)
output: 12.5

input: Determine from records and report MIC (μg/mL) S. marcescens for PRT202 (KSTNCSSKCKGHAVCDHELQCQCEEGWIPPDCD; listed as Homo sapiens)
output: 25

input: Determine from records and report MIC (μg/mL) S. marcescens for PRT870 (CECFGHSNRCSYIDLLNTVICVSCKHNTRGQHCELCRLGYFRNASAQLDDENVCIE; listed as Homo sapiens)
output: 50

input: Determine from records and report MIC (μg/mL) S. marcescens for PRT264 (SGQCLCRSGFAGTACELCAPGAFGPHCQAC; listed as Homo sapiens)
output: 12.5
